- test_protocol: Pharmacokinetics in nude mice after single IP or PO dose
- Type: in vivo, athymic nude (Nu/Nu) mice
- experimental_setup: female, athymic nude (Nu/Nu), mouse, plasma, ip, 10 mg/kg
attribute_measured: Tmax (min)
Answer in min, number only, no unit symbol.

Need Tmax, item CCn1c2ccccc2c2cc(Nc3ccnc(NCCCN4CCOCC4)n3)ccc21 [EHop-016]
30

---

- test_protocol: Physicochemical properties
attribute_measured: pKa
Give the value as a plain number.

Need pKa, item CCn1c2ccccc2c2cc(Nc3ccnc(NCCCN4CCOCC4)n3)ccc21
5

---

- test_protocol: Pharmacokinetics in nude mice after single IP or PO dose
- Format: in vivo, athymic nude (Nu/Nu) mice
- experimental_setup: female, athymic nude (Nu/Nu), mouse, plasma, po, 10 mg/kg
attribute_measured: Tmax (min)
Answer in min, number only, no unit symbol.

Need Tmax, item CCn1c2ccccc2c2cc(Nc3ccnc(NCCCN4CCOCC4)n3)ccc21
30

---

- test_protocol: Pharmacokinetics in nude mice after single IP or PO dose
- Format: in vivo, athymic nude (Nu/Nu) mice
- experimental_setup: female, athymic nude (Nu/Nu), mouse, plasma, po
attribute_measured: AUC(0-t)

Need AUC(0-t), item CCn1c2ccccc2c2cc(Nc3ccnc(NCCCN4CCOCC4)n3)ccc21
134 to 487 ng·h/mL

---

- test_protocol: Pharmacokinetics in nude mice after single IP or PO dose
- Type: in vivo, athymic nude (Nu/Nu) mice
- experimental_setup: female, athymic nude (Nu/Nu), mouse, plasma, ip
attribute_measured: Vd/F

Need Vd/F, item CCn1c2ccccc2c2cc(Nc3ccnc(NCCCN4CCOCC4)n3)ccc21
2.2 to 4.1 L

---

- test_protocol: Pharmacokinetics in nude mice after single IP or PO dose
- Format: in vivo, athymic nude (Nu/Nu) mice
- experimental_setup: female, athymic nude (Nu/Nu), mouse, plasma, ip, 40 mg/kg
attribute_measured: Vd/F (L)
Answer in L, number only, no unit symbol.

Need Vd/F, item CCn1c2ccccc2c2cc(Nc3ccnc(NCCCN4CCOCC4)n3)ccc21
2.16

---

- test_protocol: Pharmacokinetics in nude mice after single IP or PO dose
- Type: in vivo, athymic nude (Nu/Nu) mice
- experimental_setup: female, athymic nude (Nu/Nu), mouse, plasma, po, 40 mg/kg
attribute_measured: Tmax (min)
Answer in min, number only, no unit symbol.

Need Tmax, item CCn1c2ccccc2c2cc(Nc3ccnc(NCCCN4CCOCC4)n3)ccc21
30

---

- test_protocol: Pharmacokinetics in nude mice after single IP or PO dose
- Format: in vivo, athymic nude (Nu/Nu) mice
- experimental_setup: female, athymic nude (Nu/Nu), mouse, plasma, po, 40 mg/kg
attribute_measured: AUC(0-t) (ng·h/mL)
Answer in ng·h/mL, number only, no unit symbol.

Need AUC(0-t), item CCn1c2ccccc2c2cc(Nc3ccnc(NCCCN4CCOCC4)n3)ccc21
487

---

- test_protocol: Pharmacokinetics in nude mice after single IP or PO dose
- Assay type: in vivo, athymic nude (Nu/Nu) mice
- experimental_setup: female, athymic nude (Nu/Nu), mouse, plasma, ip, 20 mg/kg
attribute_measured: Tmax (min)
Answer in min, number only, no unit symbol.

Need Tmax, item CCn1c2ccccc2c2cc(Nc3ccnc(NCCCN4CCOCC4)n3)ccc21 [EHop-016]
30

---

- test_protocol: Pharmacokinetics in nude mice after single IP or PO dose
- Assay type: in vivo, athymic nude (Nu/Nu) mice
- experimental_setup: female, athymic nude (Nu/Nu), mouse, plasma, ip
attribute_measured: AUC(0-t)

Need AUC(0-t), item CCn1c2ccccc2c2cc(Nc3ccnc(NCCCN4CCOCC4)n3)ccc21 [EHop-016]
0.328 to 1.87 µg·h/mL

---

- test_protocol: Pharmacokinetics in nude mice after single IP or PO dose
- Type: in vivo, athymic nude (Nu/Nu) mice
- experimental_setup: female, athymic nude (Nu/Nu), mouse, plasma, ip, 10 mg/kg
attribute_measured: AUC(0-t) (ng·h/mL)
Answer in ng·h/mL, number only, no unit symbol.

Need AUC(0-t), item CCn1c2ccccc2c2cc(Nc3ccnc(NCCCN4CCOCC4)n3)ccc21
328

---

- test_protocol: Pharmacokinetics in nude mice after single IP or PO dose
- Type: in vivo, athymic nude (Nu/Nu) mice
- experimental_setup: female, athymic nude (Nu/Nu), mouse, plasma, po, 10 mg/kg
attribute_measured: Vd/F (L)
Answer in L, number only, no unit symbol.

Need Vd/F, item CCn1c2ccccc2c2cc(Nc3ccnc(NCCCN4CCOCC4)n3)ccc21
6.53

---

- test_protocol: Pharmacokinetics in nude mice after single IP or PO dose
- Assay type: in vivo, athymic nude (Nu/Nu) mice
- experimental_setup: female, athymic nude (Nu/Nu), mouse, plasma, ip, 20 mg/kg
attribute_measured: Vd/F (L)
Answer in L, number only, no unit symbol.

Need Vd/F, item CCn1c2ccccc2c2cc(Nc3ccnc(NCCCN4CCOCC4)n3)ccc21
3.12

---

- test_protocol: Pharmacokinetics in nude mice after single IP or PO dose
- Assay type: in vivo, athymic nude (Nu/Nu) mice
- experimental_setup: female, athymic nude (Nu/Nu), mouse, plasma, ip, 10 mg/kg
attribute_measured: MRT inf (h)
Answer in h, number only, no unit symbol.

Need MRT inf, item CCn1c2ccccc2c2cc(Nc3ccnc(NCCCN4CCOCC4)n3)ccc21 [EHop-016]
6.75

---

- test_protocol: Pharmacokinetics in nude mice after single IP or PO dose
- Format: in vivo, athymic nude (Nu/Nu) mice
- experimental_setup: female, athymic nude (Nu/Nu), mouse, plasma, po, 20 mg/kg
attribute_measured: Tmax (h)
Answer in h, number only, no unit symbol.

Need Tmax, item CCn1c2ccccc2c2cc(Nc3ccnc(NCCCN4CCOCC4)n3)ccc21
1

---

- test_protocol: Pharmacokinetics in nude mice after single IP or PO dose
- Type: in vivo, athymic nude (Nu/Nu) mice
- experimental_setup: female, athymic nude (Nu/Nu), mouse, plasma, po, 10 mg/kg
attribute_measured: MRT inf (h)
Answer in h, number only, no unit symbol.

Need MRT inf, item CCn1c2ccccc2c2cc(Nc3ccnc(NCCCN4CCOCC4)n3)ccc21 [EHop-016]
6.59

---

- test_protocol: Pharmacokinetics in nude mice after single IP or PO dose
- Assay type: in vivo, athymic nude (Nu/Nu) mice
- experimental_setup: female, athymic nude (Nu/Nu), mouse, plasma, ip
attribute_measured: Cmax

Need Cmax, item CCn1c2ccccc2c2cc(Nc3ccnc(NCCCN4CCOCC4)n3)ccc21 [EHop-016]
163 to 835 ng/mL

---

- test_protocol: Pharmacokinetics in nude mice after single IP or PO dose
- Format: in vivo, athymic nude (Nu/Nu) mice
- experimental_setup: female, athymic nude (Nu/Nu), mouse, plasma, po, 10 mg/kg
attribute_measured: AUC(0-t) (ng·h/mL)
Answer in ng·h/mL, number only, no unit symbol.

Need AUC(0-t), item CCn1c2ccccc2c2cc(Nc3ccnc(NCCCN4CCOCC4)n3)ccc21
134

---

- test_protocol: Pharmacokinetics in nude mice after single IP or PO dose
- Format: in vivo, athymic nude (Nu/Nu) mice
- experimental_setup: female, athymic nude (Nu/Nu), mouse, plasma, ip, 40 mg/kg
attribute_measured: Cmax (ng/mL)
Answer in ng/mL, number only, no unit symbol.

Need Cmax, item CCn1c2ccccc2c2cc(Nc3ccnc(NCCCN4CCOCC4)n3)ccc21 [EHop-016]
834

---

- test_protocol: Pharmacokinetics in nude mice after single IP or PO dose
- Assay type: in vivo, athymic nude (Nu/Nu) mice
- experimental_setup: female, athymic nude (Nu/Nu), mouse, plasma, po, 10 mg/kg, t1/2, PO
attribute_measured: half-life (h)
Answer in h, number only, no unit symbol.

Need half-life, item CCn1c2ccccc2c2cc(Nc3ccnc(NCCCN4CCOCC4)n3)ccc21 [EHop-016]
3.44

---

- test_protocol: Pharmacokinetics in nude mice after single IP or PO dose
- Assay type: in vivo, athymic nude (Nu/Nu) mice
- experimental_setup: female, athymic nude (Nu/Nu), mouse, plasma, ip, 20 mg/kg, t1/2, IP
attribute_measured: half-life (h)
Answer in h, number only, no unit symbol.

Need half-life, item CCn1c2ccccc2c2cc(Nc3ccnc(NCCCN4CCOCC4)n3)ccc21 [EHop-016]
4.66

---

- test_protocol: Pharmacokinetics in nude mice after single IP or PO dose
- Format: in vivo, athymic nude (Nu/Nu) mice
- experimental_setup: female, athymic nude (Nu/Nu), mouse, plasma, ip
attribute_measured: MRT

Need MRT, item CCn1c2ccccc2c2cc(Nc3ccnc(NCCCN4CCOCC4)n3)ccc21
4.21 to 6.75 h

---

- test_protocol: Pharmacokinetics in nude mice after single IP or PO dose
- Format: in vivo, athymic nude (Nu/Nu) mice
- experimental_setup: female, athymic nude (Nu/Nu), mouse, plasma, ip, 20 mg/kg
attribute_measured: AUC(0-t) (ng·h/mL)
Answer in ng·h/mL, number only, no unit symbol.

Need AUC(0-t), item CCn1c2ccccc2c2cc(Nc3ccnc(NCCCN4CCOCC4)n3)ccc21
768

---

- test_protocol: Pharmacokinetics in nude mice after single IP or PO dose
- Assay type: in vivo, athymic nude (Nu/Nu) mice
- experimental_setup: female, athymic nude (Nu/Nu), mouse, plasma, ip, 10 mg/kg, t1/2, IP
attribute_measured: half-life (h)
Answer in h, number only, no unit symbol.

Need half-life, item CCn1c2ccccc2c2cc(Nc3ccnc(NCCCN4CCOCC4)n3)ccc21
5.73
